- target.desc: 15-hydroxyprostaglandin dehydrogenase [NAD(+)] (Homo sapiens, UniProt P15428)
- Sequence (P15428 whole entry): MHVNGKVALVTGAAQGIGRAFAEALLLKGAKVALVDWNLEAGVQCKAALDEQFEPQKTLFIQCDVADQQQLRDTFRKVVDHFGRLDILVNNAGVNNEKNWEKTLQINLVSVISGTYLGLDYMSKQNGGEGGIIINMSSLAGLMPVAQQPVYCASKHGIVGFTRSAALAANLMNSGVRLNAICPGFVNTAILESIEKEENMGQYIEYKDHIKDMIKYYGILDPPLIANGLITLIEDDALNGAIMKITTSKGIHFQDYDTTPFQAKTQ
pIC50: −log10 of the molar value.
property: pIC50

1) O=C1N=C(O)S/C1=C\c1ccc(OCCC2CCCCC2)c(Cl)c1 = 8.10
